B1: ADAMTSL2 (parent)
chain: KKPPEESTCFERPCFKWYTSPWSE

Variants of: B1
PROTOCOL_DETAILS: protein stability index of a GFP-peptide fusion (GPS, HEK-293T) (PSI 1-6); higher = more stable;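 further: lentivirally expressed fusions sorted by FACS into six bins by GFP to DsRed ratio, PSI derived from sequencing read proportions per bin multiplied by bin number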
APPLIED_CONDITIONS: c terminus: a fixed tail appended
MEASURED_PROPERTY: protein stability index
Please reply with the value in numeric form only.

In the examples that follow, each entry is paired with its recorded protein stability index.
BIOSEQUENCE: KKPPEESTCFERPCFKWYISPWSE
protein stability index: 2.35
--
BIOSEQUENCE: KKPPEESTCFERPCFKWYTSPWSV
protein stability index: 1.83
--
BIOSEQUENCE: KKPPEESTCFERPCEKWYTSPWSE
protein stability index: 3.25
--
BIOSEQUENCE: KKPPEESTCFERPCFKWYQSPWSE
protein stability index: 1.89
--
BIOSEQUENCE: KKPPEESTCFERPCFKWYTSPWWE
protein stability index: 2.19
--
BIOSEQUENCE: KKPPEESTCFEWPCFKWYTSPWSE
protein stability index: 2.24
--
BIOSEQUENCE: KKPPEESTCFERPCFKWYTWPWSE
protein stability index: 4.33
--
BIOSEQUENCE: KKPPEESTCFERPQFKWYTSPWSE
protein stability index: 2.68

Ask: What value of protein stability index has been reported for the following variant? `KKPPEDSTCFERPCFKWYTSPWSE`
Reply: 2.8

Ask: State the recorded protein stability index for this entry: `KKPPEESTCFLRPCFKWYTSPWSE`
Reply: 1.88

Ask: Any idea what its protein stability index is? The variant is `KKPPSESTCFERPCFKWYTSPWSE`
Reply: 2.3

Ask: Name the recorded protein stability index for `KKPPEESTCFERPCFKWYTSPWSQ` .
Reply: 2.37

Ask: Suppose we examine the variant `KKPPEESTAFERPCFKWYTSPWSE` ; what protein stability index value has been reported?
Reply: 2.43
